The values you see were collected from a melting point compilation (Tetko et al.; mined from patent text by program, amines drawn as free bases though some values may be those of a salt).

Measured melting point accompanies every entry in the list below.

The cases that follow already have their melting point on record.
COc1cc(OCCNC(=O)C2Cc3ccccc3N2S(=O)(=O)c2ccc(-c3cc(C(F)(F)F)ccc3Cl)cc2)ccc1C(=O)O (stereo unspecified); 98 to 104 °C
CC(=O)c1cccc(N2CCN(CCC3CCC(NC(=O)CC#N)CC3)CC2)c1 (stereo unspecified); 160 °C
O=C1O[C@@H](CNC(=S)C(F)F)CN1c1ccc(N2CCS(=O)(=O)CC2)c(F)c1; 146 to 147 °C

Now let's try a different one.
According to the records, this compound CCOP(=O)(OCC)c1nc(NC(C)C)nc(NC(C)C)n1 displays melting point of 91 to 94 °C
